All values here come from patent US20060084596A1.

# subjectOfTest: vascular endothelial growth factor (VEGF) (UniProt P15692-4 27-191, limits assumed)
# Sequence (P15692 other isoform, or with tags, fused parts or gaps limits assumed): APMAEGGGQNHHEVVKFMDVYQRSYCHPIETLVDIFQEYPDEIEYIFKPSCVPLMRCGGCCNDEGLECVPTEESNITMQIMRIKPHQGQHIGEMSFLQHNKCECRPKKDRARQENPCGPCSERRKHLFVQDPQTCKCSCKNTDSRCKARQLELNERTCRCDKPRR
# protocolSummary: cell-based or functional assay
Positions of bridges follow the written chain, without caps; N, C: chain ends.
Let's look at some binders and their measured IC50, p42.

Incoming: Tell me the measured IC50, p42 of GKGK (designed binder, linker N-C via 3‑aminomethyl‑5‑aminobenzamide; also: four loops on But-Calix scaffold) [GFB-116] , please.
Outgoing: 5 µM

Incoming: Form field: reported IC50, p42 of GDSD (designed binder, linker N-C via 3‑aminomethyl‑5‑aminobenzamide; also: four loops on But-Calix calix[4]arene scaffold) [GFB-113]
Outgoing: 10 µM

Incoming: // returns reported IC50, p42 for input GDFD (designed binder, linker N-C via 3‑aminomethyl‑5‑aminobenzamide; also: four loops on O4-Calix calix[4]arene scaffold) [GFB-102]
Outgoing: > 100 µM
